Reference for the values: the supplement of paper PMC12645437

Molecular target: T1, CRBN, Q96SW2;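 also: pooled lentiviral library of zinc finger degron-EGFP fusions in mCherry-positive Jurkat cells, FACS-sorted after compound exposure, with degron abundance counted by next-generation sequencing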
T1 chain: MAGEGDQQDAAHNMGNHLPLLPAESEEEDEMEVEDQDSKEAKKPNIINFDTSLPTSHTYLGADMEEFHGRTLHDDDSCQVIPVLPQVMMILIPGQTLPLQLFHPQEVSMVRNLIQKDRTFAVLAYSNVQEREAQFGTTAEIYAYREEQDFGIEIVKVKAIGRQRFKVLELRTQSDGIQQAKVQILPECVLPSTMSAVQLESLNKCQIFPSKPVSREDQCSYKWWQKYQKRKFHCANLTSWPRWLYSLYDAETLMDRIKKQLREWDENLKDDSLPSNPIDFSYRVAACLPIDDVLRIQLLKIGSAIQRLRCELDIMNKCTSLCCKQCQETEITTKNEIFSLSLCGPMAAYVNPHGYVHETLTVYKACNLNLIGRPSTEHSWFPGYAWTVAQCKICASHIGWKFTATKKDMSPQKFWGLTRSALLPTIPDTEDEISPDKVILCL
Experiment: log2 fold change of degron read counts, EGFP-low vs EGFP+ sorted cells (limma voom), compound-induced degradation; higher = more compound-induced degradation of the degron-EGFP fusion; degrons are variants of IKZF1/3 zinc finger 2; compound dose not given here
Settings: Jurkat; 18 h; compound: compound 22 (5-morpholino-thalidomide)
The full ranking holds about 8,300 sequences; the median of “log2 fold change of degron read counts, EGFP-low vs EGFP+ sorted cells (limma voom), compound-induced degradation” is about -1.1, and the highest 2% start at about 3.2. Many of the other results were omitted from the sample, so the highest values are more common in it than they were.
# log2 fold change of degron read counts >= 0.7 gives satisfied, anything below gives not satisfied

Completed entries (count: 4):
residues	label class
FRCSVCGHRFTQKGNLLRHIKL [46F_47R_49S_50V_52G_53H_54R_55F_67L_, Q9UKT9]	not satisfied
FVCPICGADFTQKGNLLRHIKL [46F_47V_49P_50I_52G_53A_54D_55F_67L_, Q9UKT9]	satisfied
FNCNICGASFTQKGNLLRHIKL [46F_47N_49N_50I_52G_53A_54S_55F_67L_, Q9UKT9]	not satisfied
FVCPICGAMFTQKGNLLRHIKL [46F_47V_49P_50I_52G_53A_54M_55F_67L_, Q9UKT9]	satisfied

Would you say FWCNICGASFTQKGNLLRHIKL [46F_47W_49N_50I_52G_53A_54S_55F_67L_, Q9UKT9] shows log2 fold change of degron read counts at minimum 0.7?
satisfied

Decide: log2 fold change of degron read counts of FQCNICGASFTQKGNLLRHIKL [46F_47Q_49N_50I_52G_53A_54S_55F_67L_, Q9UKT9] >= 0.7?
satisfied

Check this sequence for log2 fold change of degron read counts at or above 0.7: FCCNQCGRVFTQKGNLLRHIKL [46F_47C_49N_50Q_52G_53R_54V_55F_67L_, Q9UKT9]
not satisfied
